EXPERIMENTAL PROTOCOL: small molecules captured by biotinylated probe aFSTL3 – biochemical, small-molecule microarray, fluorescence 635/667, stem cell growth factor project, primary screen (AID 1064);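 further: measures binding of the biotinylated anti-FSTL3 antibody to printed compounds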
ASSAY CONTEXT: higher = more signal
Label Condition met for high-side composite z-score (at or above 0.2) and Condition not met for low-side composite z-score (below it).

Is composite z-score for NC(=O)NCC#Cc1ccc2c(c1)[C@]1(C(=O)N2)[C@H](C(=O)NC[C@H](O)c2ccccc2)[C@H]2C(=O)O[C@H](c3ccccc3)[C@H](c3ccccc3)N2[C@@H]1c1ccccc1OCCO at or above 0.2?
Condition not met

Tell me whether composite z-score is at least 0.2 here: CCOC(=O)C[C@H]1[C@H](OC(=O)c2cc3ccccc3oc2=O)[C@@H](NC(=O)c2ccc3ccccc3c2)c2cc(OCCCO)ccc2N1C(=O)c1ccccc1
Condition not met

Hello, I need to know if [N-]=[N+]=NCc1ccccc1[C@@H]1OC(c2ccc(OCCCO)cc2)=N[C@]1(Cc1ccccc1)C(=O)O has measured composite z-score not below 0.2. Thanks!
Condition met

Decide: composite z-score of CCOC(=O)C[C@H]1[C@H](OC(=O)c2ccc(C(=O)c3ccccc3)cc2)[C@@H](NC(=O)c2ccc3ccccc3n2)c2cc(OCCCO)ccc2N1C(=O)c1ccc2ccccc2n1 >= 0.2?
Condition not met

Entry CCOC(=O)C1=C[C@@H](C(C)(C)C)N(S(=O)(=O)c2ccc(C)cc2)[C@H]1c1ccc(Cl)c(Cl)c1 : is its composite z-score no less than 0.2?
Condition not met

Would you say COCCOC(=O)N1C(=O)[C@@]2(c3cc(C#CCCO)ccc31)[C@H](C(=O)NC[C@H](O)c1ccccc1)[C@H]1C(=O)O[C@H](c3ccccc3)[C@H](c3ccccc3)N1[C@@H]2c1ccc(OCCO)cc1 shows composite z-score at minimum 0.2?
Condition met

Threshold query (composite z-score >= 0.2) on COCCn1c(C(=O)N(C)C)cc2c1C[C@H]1CN(C(=O)c3ccccc3)[C@@](Cc3ccc(F)cc3)(C(=O)OC)[C@@H]21
Condition not met

composite z-score >= 0.2 for C=C(COC)C(=O)CC[C@@H](OC(=O)c1ccccc1-c1ccccc1C(=O)O)c1ccc(CO)o1 ?
Condition not met

Tell me whether composite z-score is at least 0.2 here: C=C(C)[C@@H]1CC=C(C(O)C2C=CC3C(=O)N(Cc4ccccc4)C(=O)C3N2n2cnnc2)CC1 (some centres undefined)
Condition met

Confirm if composite z-score reported for the molecule CCCC[C@@H]1C[C@H]1[C@@H](NC(=O)c1ccccc1)c1ccccc1 is 0.2 or above.
Condition met

Reported composite z-score at or above 0.2? C=C[C@H](C)[C@H](O)c1ccc(OCCO)cc1
Condition met

Evaluate O=C1c2ccccc2[C@@]2(Cc3ccccc3N(Cc3ccccc3)C2=O)[C@H](c2ccc(CO)cc2)N1Cc1ccccc1C(F)(F)F : composite z-score at minimum 0.2?
Condition not met

Hi, just wondering whether [N-]=[N+]=Nc1ccccc1[C@H]1OC(c2ccc(OCCCO)cc2)=N[C@@]1(CCS(=O)(=O)c1ccccc1)C(=O)N1CCOCC1 shows composite z-score of 0.2 or higher.
Condition met

Hello, I need to know if [N-]=[N+]=Nc1ccccc1C[C@]1(C(=O)N2CCCCC2)N=C(c2ccc(OCCCO)cc2)O[C@H]1c1ccccc1N=[N+]=[N-] has measured composite z-score not below 0.2. Thanks!
Condition met
